Assay Target: GTP-loaded KRAS proteins (residue 1-169 of KRAS4B) (Homo sapiens, UniProt P01116, G12V)
Construct: recombinant KRAS proteins (residue 1-169 of KRAS4B); His6 (TEV protease-cleavable) (cleaved yes); made in house; host or cells: E. coli
Test Description: RAS GTP hydrolysis rate assay (GTPase-Glo) with cyclophilin A
Format: biochemical
Cond: bound in tri-complex with cyclophilin A; in some embodiments KRAS^G12V is the isoform used
Metric: hydrolyzer class: RAS(ON) GTP hydrolysis rate relative to the intrinsic hydrolysis rate (Moderate)

CCO[C@@H]1c2nc(cs2)-c2ccc3c(c2)c(c(-c2cc(N4CCN(C)CC4)cnc2[C@H](C)OC)n3CC)CC(C)(C)COC(=O)[C@@H]2CCCN(N2)C(=O)[C@H]1NC(=O)[C@H]1[C@H](C)[C@@H]1C (atropisomer, axis not shown)    15
CCn1c(-c2cc(N3CCN(C)CC3)cnc2[C@H](C)OC)c2c3cc(ccc31)-c1csc(n1)C[C@H](NC(=O)[C@H](C(C)C)N(C)C(=O)N(C)C)C(=O)N1CCC[C@H](N1)C(=O)OCC(C)(C)C2 (atropisomer, axis not shown)    13

====

Assay Target: GTP-loaded KRAS proteins (residue 1-169 of KRAS4B) (Homo sapiens, UniProt P01116, G12V)
Construct: recombinant KRAS proteins (residue 1-169 of KRAS4B); His6 (TEV protease-cleavable) (cleaved yes); made in house; host or cells: E. coli
Test Description: RAS GTP hydrolysis rate assay (GTPase-Glo) with cyclophilin A
Assay type: biochemical
Cond: bound in tri-complex with cyclophilin A; in some embodiments KRAS^G12V is the isoform used
Metric: hydrolyzer class: RAS(ON) GTP hydrolysis rate relative to the intrinsic hydrolysis rate (Weak)
The answer is to be given in Weak; state only the numeric part.

**Query** Tell us which hydrolyzer class: RAS(ON) GTP hydrolysis rate relative to the intrinsic hydrolysis rate value is on record for CCn1c(-c2cc(N3CCN(C)CC3)cnc2[C@H](C)OC)c2c3cc(ccc31)-c1cccc(c1)C[C@H](NC(=O)[C@H]1C[C@@H]1C)C(=O)N1CCC[C@H](N1)C(=O)OCC(C)(C)C2 (atropisomer, axis not shown) [compound 20]
**Result** 20

====

Assay Target: GTP-loaded KRAS proteins (residue 1-169 of KRAS4B) (Homo sapiens, UniProt P01116, G12V)
Construct: recombinant KRAS proteins (residue 1-169 of KRAS4B); His6 (TEV protease-cleavable) (cleaved yes); made in house; host or cells: E. coli
Test Description: RAS GTP hydrolysis rate assay (GTPase-Glo) with cyclophilin A
Type: biochemical
Cond: bound in tri-complex with cyclophilin A; in some embodiments KRAS^G12V is the isoform used
Metric: hydrolyzer class: RAS(ON) GTP hydrolysis rate relative to the intrinsic hydrolysis rate (Weak)

CCn1c(-c2cc(N3CCN(C)CC3)cnc2[C@H](C)OC)c2c3cc(ccc31)N1CCO[C@@H](C[C@H](NC(=O)[C@H]3C[C@@H]3C)C(=O)N3CCC[C@H](N3)C(=O)OCC(C)(C)C2)C1 (atropisomer, axis not shown)    22
CCn1c(-c2cc(N3CCN(C)CC3)cnc2[C@H](C)OC)c2c3cc(ccc31)-c1cccc(n1)C[C@H](NC(=O)[C@H]1C[C@@H]1C)C(=O)N1CCC[C@H](N1)C(=O)OCC(C)(C)C2 (atropisomer, axis not shown)    21

(P) CCO[C@@H]1c2nc(cs2)-c2ccc3c(c2)c(c(-c2cc(N4CCN(C)CC4)cnc2[C@H](C)OC)n3CCOC(C)C)CC(C)(C)COC(=O)[C@@H]2CCCN(N2)C(=O)[C@H]1NC(=O)N1CC[C@H]1C (atropisomer, axis not shown)
(Q) CO[C@@H](C)c1ncccc1-c1c2c3cc(ccc3n1CC(F)(F)F)CCN(C)C[C@H](NC(=O)[C@H]1C[C@@H]1C)C(=O)N1CCC[C@H](N1)C(=O)OCC(C)(C)C2 (atropisomer, axis not shown)
**Query** Out of P and Q , name the one with the higher hydrolyzer class: RAS(ON) GTP hydrolysis rate relative to the intrinsic hydrolysis rate. Pick one; state its label.
**Result** P
(P: 18 Weak, Q: 9 Weak)
